Origin of values: patent US20220315567A1

Would you mind telling me the reported ΔRA of compound of each entry?
- TARGET_DESC: human OPRM1 (μ, MOR) (Homo sapiens, UniProt P35372)
- Construct: host or cells: CHO-K1
- Sequence (P35372 whole entry): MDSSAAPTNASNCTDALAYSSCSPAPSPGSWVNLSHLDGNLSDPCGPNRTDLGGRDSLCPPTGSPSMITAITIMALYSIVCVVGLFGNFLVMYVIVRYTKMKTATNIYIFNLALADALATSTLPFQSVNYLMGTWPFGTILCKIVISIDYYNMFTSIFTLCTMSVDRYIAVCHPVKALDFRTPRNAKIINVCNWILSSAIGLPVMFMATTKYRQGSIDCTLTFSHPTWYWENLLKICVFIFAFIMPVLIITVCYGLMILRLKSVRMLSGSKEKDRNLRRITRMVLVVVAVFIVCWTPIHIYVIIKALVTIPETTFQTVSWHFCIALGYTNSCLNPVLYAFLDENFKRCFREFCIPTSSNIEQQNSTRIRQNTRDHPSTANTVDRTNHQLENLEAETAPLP
- Format: cell-based
- CONDITION_SET: relative activity from EC50 and Emax of β-arrestin vs cAMP; lower RA = more G-protein biased
Structures can show the parent of a compound that is named as a salt.

Here's what some known entries look like.
CN(C)C(CNC(=O)N[C@@H]1CCc2ccccc2C1)c1ccsc1 (stereo partly drawn) [Compound 66] ... <−2.96
CN(C)C(CNC(=O)N(C)[C@@H]1CCCc2ccccc21)c1ccsc1 (stereo partly drawn) [Compound 45] ... <−2.96
CN(C)C1(CNC(=O)N2Cc3ccccc3C2)CCCC1 [Compound 64] ... <−2.96
CN(C)C1(CNC(=O)N2Cc3ccc(F)cc3C2)CCOCC1 [Compound 61] ... <−2.96
COc1ccc(C(CNC(=O)N2Cc3ccc(F)cc3C2)N(C)C)cc1 (stereo not drawn) [Compound 16a, hydrochloride] ... −2.44
CN(C)C(CNC(=O)N1CC[C@H](c2ccccc2)C1)c1ccsc1 (stereo partly drawn) [Compound 40] ... <−2.96
CNC(CNC(=O)N1Cc2ccccc2C1)c1ccsc1 (stereo not drawn) [Compound 78] ... <−2.96
CN(C)C(CNC(=O)N1Cc2cc(F)c(F)cc2C1)c1ccsc1 (stereo not drawn) [Compound 6a, hydrochloride] ... <−2.96

Next item in the queue.
Documented ΔRA of compound of CN(C)C(CNC(=O)N1CCCc2ccccc21)c1ccsc1 (stereo not drawn) [Compound 9a, hydrochloride] : −2.10
